Settings: human
measured endpoint: Hepatotoxicity (animal toxicity known)

# input Report Hepatotoxicity (animal toxicity known) for CN(C)CCCN1c2ccccc2CCc2ccc(Cl)cc21 please.
# output yes

# input Report Hepatotoxicity (animal toxicity known) for NNCCc1ccccc1 please.
# output yes

# input Report Hepatotoxicity (animal toxicity known) for Cc1c(N(C)C)c(=O)n(-c2ccccc2)n1C please.
# output yes

# input Report Hepatotoxicity (animal toxicity known) for C=CC[C@@H]1/C=C(\C)C[C@H](C)C[C@H](OC)[C@H]2O[C@@](O)(C(=O)C(=O)N3CCCC[C@H]3C(=O)O[C@H](/C(C)=C/[C@@H]3CC[C@@H](O)[C@H](OC)C3)[C@H](C)[C@@H](O)CC1=O)[C@H](C)C[C@@H]2OC [TACROLIMUS ANHYDROUS] please.
# output yes

# input Report Hepatotoxicity (animal toxicity known) for FC(F)OC(F)(F)C(F)Cl (stereo not drawn) please.
# output yes

Further cases:
# input Report Hepatotoxicity (animal toxicity known) for CN(C)c1ccc(O)c2c1C[C@H]1C[C@H]3[C@H](N(C)C)C(O)=C(C(N)=O)C(=O)[C@@]3(O)C(O)=C1C2=O please.
# output yes

# input Report Hepatotoxicity (animal toxicity known) for CNCCCN1c2ccccc2CCc2ccccc21 please.
# output yes

# input Report Hepatotoxicity (animal toxicity known) for N#CN [CYANAMIDE] please.
# output yes

====

Conditions: human, serum
Hepatotoxicity (acute) of 1 or higher: Fulfilled. Under 1: Not fulfilled.

# input State whether the measured Hepatotoxicity (acute) reaches 1, counting equality as reaching it, for CN(C)S(=O)(=O)c1ccc2c(c1)N(CCCN1CCC(CCO)CC1)c1ccccc1S2
# output Not fulfilled

# input State whether the measured Hepatotoxicity (acute) reaches 1, counting equality as reaching it, for CCC(=O)[C@@]1(C)CC[C@H]2[C@@H]3CCC4=CC(=O)CCC4=C3CC[C@@]21C
# output Not fulfilled

# input State whether the measured Hepatotoxicity (acute) reaches 1, counting equality as reaching it, for C1CC1
# output Fulfilled

Further cases:
# input State whether the measured Hepatotoxicity (acute) reaches 1, counting equality as reaching it, for Nc1ccc(S(=O)(=O)Nc2nccs2)cc1
# output Not fulfilled

# input State whether the measured Hepatotoxicity (acute) reaches 1, counting equality as reaching it, for CN1CCN(CCCN2c3ccccc3Sc3ccc(Cl)cc32)CC1
# output Fulfilled

====

Settings: human, serum
Measured Hepatotoxicity (moderate) of individual entries
Please respond with just the number, no unit label.

# input Report Hepatotoxicity (moderate) for CO[C@@H]1C[C@](C)(O)Cc2cc3c(c(O)c21)C(=O)c1c(O)cc2c(c1C3=O)O[C@@H]1O[C@@]2(C)[C@H](O)[C@@H](N(C)C)[C@@H]1O [MENOGARIL] please.
# output 4

# input Report Hepatotoxicity (moderate) for CCCc1cc(=O)[nH]c(=S)[nH]1 [PROPYLTHIOURACIL] please.
# output 5

# input Report Hepatotoxicity (moderate) for O=c1[nH]c(=O)n(C2CCCO2)cc1F (stereo not given) [TEGAFUR] please.
# output 2

# input Report Hepatotoxicity (moderate) for CC(c1cc2ccccc2s1)N(O)C(N)=O (stereo not given) [ZILEUTON] please.
# output 8

As a next step, examine the compound that follows.
# input Report Hepatotoxicity (moderate) for Cc1cc2c(s1)Nc1ccccc1N=C2N1CCN(C)CC1 [OLANZAPINE] please.
# output 13
